- Test system: NRG-mice bearing LNCaP tumors
- method: Biodistribution (and PET/SPECT imaging) in NRG-mice bearing LNCaP tumors
- Format: in vivo
- condition_label: 24 h p.i., Avg
*1 amine or outer side, *2 acyl side, *3 side chain or, on linkers, in order; H or OH if unused. Where a SMILES comes first, the peptide text is derived from it. [ ]: non-standard residue; d: D form. The star is where a group is joined. ξ: configuration not given here. ξLys(Nα-CO-ξAad) = O=C(O)CCCC(NC(=O)NC(CCCCN*)C(=O)O)C(=O)O; Butanoyl(4-(4-NO2Ph)) = O=C(CCCc1ccc([N+](=O)[O-])cc1)*; DOTA = O=C(O)CN1CCN(CC(=O)O)CCN(CC(=O)*)CCN(CC(=O)O)CC1; Butanoyl(4-(4-MeO-phenyl)) = COc1ccc(CCCC(=O)*)cc1; ξAla(9-anthryl) = NC(Cc1c2ccccc2cc2ccccc12)C(=O)O; X2 = O=C(NC(CCCCN*)C(=O)O)NC(CC(F)C(=O)O)C(=O)O; X1 = O=C(C1CCC(CN[*:1])CC1)[*:2]; ξK = NCCCCC(N)C(=O)O
Record form. Attribute: Biodistribution: Spleen. Fill in for each entry.
Give bare numbers, in % ID/g.

Example entries begin here.
COc1ccc(CCCC(=O)NCC(=O)NC(CCCCNC(=O)CN2CCN(CC(=O)[O-])CCN(CC(=O)[O-])CCN(CC(=O)[O-])CC2)CC(=O)NCC2CCC(C(=O)NC(Cc3c4ccccc4cc4ccccc34)C(=O)NCCCCC(NC(=O)NC(CC(F)C(=O)O)C(=O)O)C(=O)O)CC2)cc1.[177Lu+3] (stereo not shown) [^177Lu-CCZ02019]    0.37
COc1ccc(CCCC(=O)NCC(=O)NC(CCCCNC(=O)CN2CCN(CC(=O)[O-])CCN(CC(=O)[O-])CCN(CC(=O)[O-])CC2)C(=O)NCC(=O)NCC2CCC(C(=O)NC(Cc3c4ccccc4cc4ccccc34)C(=O)NCCCCC(NC(=O)NC(CC(F)C(=O)O)C(=O)O)C(=O)O)CC2)cc1.[177Lu+3] (stereo not shown) [^177Lu-CCZ02008] ({Butanoyl(4-(4-MeO-phenyl))}-G[ξK](DOTA)G[X1][ξAla(9-anthryl)]-X2)    0.86
COc1ccc(CCCC(=O)NCC(=O)NC(CCCCNC(=O)CN2CCN(CC(=O)[O-])CCN(CC(=O)[O-])CCN(CC(=O)[O-])CC2)C(=O)NCC2CCC(C(=O)NC(Cc3c4ccccc4cc4ccccc34)C(=O)NCCCCC(NC(=O)NC(CCCC(=O)O)C(=O)O)C(=O)O)CC2)cc1.[177Lu+3] (stereo not shown) [^177Lu-HTK03170, reference compound]    0.33

Could you now consider this next compound?
Summary: O=C([O-])CN1CCN(CC(=O)[O-])CCN(CC(=O)NCCCCC(NC(=O)CNC(=O)CCCc2ccc([N+](=O)[O-])cc2)C(=O)NCC(=O)NCC2CCC(C(=O)NC(Cc3c4ccccc4cc4ccccc34)C(=O)NCCCCC(NC(=O)NC(CCCC(=O)O)C(=O)O)C(=O)O)CC2)CCN(CC(=O)[O-])CC1.[225Ac+3] (stereo not shown) [^225Ac-CCZ02017] ({Butanoyl(4-(4-NO2Ph))}-G[ξK](DOTA)G[X1][ξAla(9-anthryl)]-{ξLys(Nα-CO-ξAad)}) , NRG-mice bearing LNCaP tumors, Biodistribution: Spleen = 0.50

====

- Test system: NRG-mice bearing LNCaP tumors
- method: Biodistribution (and PET/SPECT imaging) in NRG-mice bearing LNCaP tumors
- Assay type: in vivo
- condition_label: 24 h p.i., Avg
*1 amine or outer side, *2 acyl side, *3 side chain or, on linkers, in order; H or OH if unused. Where a SMILES comes first, the peptide text is derived from it. [ ]: non-standard residue; d: D form. The star is where a group is joined. ξ: configuration not given here. ξLys(Nα-CO-ξAad) = O=C(O)CCCC(NC(=O)NC(CCCCN*)C(=O)O)C(=O)O; Butanoyl(4-(4-NO2Ph)) = O=C(CCCc1ccc([N+](=O)[O-])cc1)*; DOTA = O=C(O)CN1CCN(CC(=O)O)CCN(CC(=O)*)CCN(CC(=O)O)CC1; Butanoyl(4-(4-MeO-phenyl)) = COc1ccc(CCCC(=O)*)cc1; ξAla(9-anthryl) = NC(Cc1c2ccccc2cc2ccccc12)C(=O)O; X2 = O=C(NC(CCCCN*)C(=O)O)NC(CC(F)C(=O)O)C(=O)O; X1 = O=C(C1CCC(CN[*:1])CC1)[*:2]; ξK = NCCCCC(N)C(=O)O
Record form. Attribute: Biodistribution: Pancreas. Fill in for each entry.
Answers are plain numbers, in % ID/g.

Value sought for every listed compound: Biodistribution: Pancreas.
1. COc1ccc(CCCC(=O)NCC(=O)NC(CCCCNC(=O)CN2CCN(CC(=O)[O-])CCN(CC(=O)[O-])CCN(CC(=O)[O-])CC2)C(=O)NCC(=O)NCC2CCC(C(=O)NC(Cc3c4ccccc4cc4ccccc34)C(=O)NCCCCC(NC(=O)NC(CC(F)C(=O)O)C(=O)O)C(=O)O)CC2)cc1.[177Lu+3] (stereo not shown) [^177Lu-CCZ02008] ({Butanoyl(4-(4-MeO-phenyl))}-G[ξK](DOTA)G[X1][ξAla(9-anthryl)]-X2)
2. O=C([O-])CN1CCN(CC(=O)[O-])CCN(CC(=O)NCCCCC(NC(=O)CNC(=O)CCCc2ccc([N+](=O)[O-])cc2)C(=O)NCC(=O)NCC2CCC(C(=O)NC(Cc3c4ccccc4cc4ccccc34)C(=O)NCCCCC(NC(=O)NC(CCCC(=O)O)C(=O)O)C(=O)O)CC2)CCN(CC(=O)[O-])CC1.[225Ac+3] (stereo not shown) [^225Ac-CCZ02017] ({Butanoyl(4-(4-NO2Ph))}-G[ξK](DOTA)G[X1][ξAla(9-anthryl)]-{ξLys(Nα-CO-ξAad)})
3. COc1ccc(CCCC(=O)NCC(=O)NC(CCCCNC(=O)CN2CCN(CC(=O)[O-])CCN(CC(=O)[O-])CCN(CC(=O)[O-])CC2)CC(=O)NCC2CCC(C(=O)NC(Cc3c4ccccc4cc4ccccc34)C(=O)NCCCCC(NC(=O)NC(CC(F)C(=O)O)C(=O)O)C(=O)O)CC2)cc1.[177Lu+3] (stereo not shown) [^177Lu-CCZ02019]
4. O=C([O-])CN1CCN(CC(=O)[O-])CCN(CC(=O)NCCCCC(NC(=O)CNC(=O)CCCc2ccc([N+](=O)[O-])cc2)C(=O)NCC(=O)NCC2CCC(C(=O)NC(Cc3c4ccccc4cc4ccccc34)C(=O)NCCCCC(NC(=O)NC(CCCC(=O)O)C(=O)O)C(=O)O)CC2)CCN(CC(=O)[O-])CC1.[177Lu+3] (stereo not shown) [^177Lu-CCZ02017] ({Butanoyl(4-(4-NO2Ph))}-G[ξK](DOTA)G[X1][ξAla(9-anthryl)]-{ξLys(Nα-CO-ξAad)})

1. 0.62
2. 0.09
3. 0.17
4. 0.11

====

- Test system: NRG-mice bearing LNCaP tumors
- method: Biodistribution (and PET/SPECT imaging) in NRG-mice bearing LNCaP tumors
- Assay type: in vivo
- condition_label: 72 h p.i., Avg
*1 amine or outer side, *2 acyl side, *3 side chain or, on linkers, in order; H or OH if unused. Where a SMILES comes first, the peptide text is derived from it. [ ]: non-standard residue; d: D form. The star is where a group is joined. ξ: configuration not given here. ξLys(Nα-CO-ξAad) = O=C(O)CCCC(NC(=O)NC(CCCCN*)C(=O)O)C(=O)O; Butanoyl(4-(4-NO2Ph)) = O=C(CCCc1ccc([N+](=O)[O-])cc1)*; DOTA = O=C(O)CN1CCN(CC(=O)O)CCN(CC(=O)*)CCN(CC(=O)O)CC1; Butanoyl(4-(4-MeO-phenyl)) = COc1ccc(CCCC(=O)*)cc1; ξAla(9-anthryl) = NC(Cc1c2ccccc2cc2ccccc12)C(=O)O; X2 = O=C(NC(CCCCN*)C(=O)O)NC(CC(F)C(=O)O)C(=O)O; X1 = O=C(C1CCC(CN[*:1])CC1)[*:2]; ξK = NCCCCC(N)C(=O)O
observed_property: Biodistribution: LNCaP tumor (% ID/g)
Give bare numbers, in % ID/g.

COc1ccc(CCCC(=O)NCC(=O)NC(CCCCNC(=O)CN2CCN(CC(=O)[O-])CCN(CC(=O)[O-])CCN(CC(=O)[O-])CC2)C(=O)NCC2CCC(C(=O)NC(Cc3c4ccccc4cc4ccccc34)C(=O)NCCCCC(NC(=O)NC(CCCC(=O)O)C(=O)O)C(=O)O)CC2)cc1.[177Lu+3] (centres unmarked) [^177Lu-HTK03170, reference compound]    56.98
COc1ccc(CCCC(=O)NCC(=O)NC(CCCCNC(=O)CN2CCN(CC(=O)[O-])CCN(CC(=O)[O-])CCN(CC(=O)[O-])CC2)C(=O)NCC(=O)NCC2CCC(C(=O)NC(Cc3c4ccccc4cc4ccccc34)C(=O)NCCCCC(NC(=O)NC(CC(F)C(=O)O)C(=O)O)C(=O)O)CC2)cc1.[177Lu+3] (centres unmarked) [^177Lu-CCZ02008] ({Butanoyl(4-(4-MeO-phenyl))}-G[ξK](DOTA)G[X1][ξAla(9-anthryl)]-X2)    38.46
COc1ccc(CCCC(=O)NCC(=O)NC(CCCCNC(=O)CN2CCN(CC(=O)[O-])CCN(CC(=O)[O-])CCN(CC(=O)[O-])CC2)CC(=O)NCC2CCC(C(=O)NC(Cc3c4ccccc4cc4ccccc34)C(=O)NCCCCC(NC(=O)NC(CC(F)C(=O)O)C(=O)O)C(=O)O)CC2)cc1.[177Lu+3] (centres unmarked) [^177Lu-CCZ02019]    45.10
O=C([O-])CN1CCN(CC(=O)[O-])CCN(CC(=O)NCCCCC(NC(=O)CNC(=O)CCCc2ccc([N+](=O)[O-])cc2)C(=O)NCC(=O)NCC2CCC(C(=O)NC(Cc3c4ccccc4cc4ccccc34)C(=O)NCCCCC(NC(=O)NC(CCCC(=O)O)C(=O)O)C(=O)O)CC2)CCN(CC(=O)[O-])CC1.[225Ac+3] (centres unmarked) [^225Ac-CCZ02017] ({Butanoyl(4-(4-NO2Ph))}-G[ξK](DOTA)G[X1][ξAla(9-anthryl)]-{ξLys(Nα-CO-ξAad)})    54.12

Could you now consider this next molecule?
Biodistribution: LNCaP tumor reported for this molecule O=C([O-])CN1CCN(CC(=O)[O-])CCN(CC(=O)NCCCCC(NC(=O)CNC(=O)CCCc2ccc([N+](=O)[O-])cc2)C(=O)NCC(=O)NCC2CCC(C(=O)NC(Cc3c4ccccc4cc4ccccc34)C(=O)NCCCCC(NC(=O)NC(CCCC(=O)O)C(=O)O)C(=O)O)CC2)CCN(CC(=O)[O-])CC1.[177Lu+3] (centres unmarked) [^177Lu-CCZ02017] ({Butanoyl(4-(4-NO2Ph))}-G[ξK](DOTA)G[X1][ξAla(9-anthryl)]-{ξLys(Nα-CO-ξAad)}) : 70.84
